Tested on: ABC-1
protocol description: relative viability (nuclei count vs DMSO), 5 days (fraction); higher = more cells survive
study conditions: first compound 0.1265 µM
Listed here: items and their measured relative viability.

// known answers, use as guide
INSERT INTO assay_data (molecule, reading) VALUES
  ('Clc1ccc(Nc2nnc(Cc3ccncc3)c3ccccc23)cc1 [Vatalanib] + Cc1cc(Nc2cc(N3CCN(C)CC3)nc(Sc3ccc(NC(=O)C4CC4)cc3)n2)n[nH]1 [Tozasertib] (partner 0.1 µM)', 0.166),
  ('C[C@@H]1CN(CC(=O)Nc2ccc3c(c2)Cc2cccc(-c4cc(=O)cc(N5CCOCC5)o4)c2S3)C[C@H](C)O1 + N=C(N)NC(=N)NCCc1ccccc1 [Phenformin] (partner 250 µM)', 0.256),
  ('C[C@@H]1CN(CC(=O)Nc2ccc3c(c2)Cc2cccc(-c4cc(=O)cc(N5CCOCC5)o4)c2S3)C[C@H](C)O1 + Cc1nc(Nc2ncc(C(=O)Nc3c(C)cccc3Cl)s2)cc(N2CCN(CCO)CC2)n1 [Dasatinib] (partner 0.075 µM)', 0.571),
  ('C[C@@H]1CN(CC(=O)Nc2ccc3c(c2)Cc2cccc(-c4cc(=O)cc(N5CCOCC5)o4)c2S3)C[C@H](C)O1 + Cc1nc(NC(=O)N2CCC[C@H]2C(N)=O)sc1-c1ccnc(C(C)(C)C(F)(F)F)c1 [Alpelisib] (partner 2 µM)', 1.05),
  ('Clc1ccc(Nc2nnc(Cc3ccncc3)c3ccccc23)cc1 [Vatalanib] + CS(=O)(=O)CCNCc1ccc(-c2ccc3ncnc(Nc4ccc(OCc5cccc(F)c5)c(Cl)c4)c3c2)o1 [Lapatinib] (partner 2 µM)', 0.931);

Please turn your attention to the following entry.
Observed relative viability on ABC-1, entry Clc1ccc(Nc2nnc(Cc3ccncc3)c3ccccc23)cc1 [Vatalanib] + O=C(c1cc(Cc2n[nH]c(=O)c3ccccc23)ccc1F)N1CCN(C(=O)C2CC2)CC1 [Olaparib] (partner 8 µM) , equals 0.689

====

Tested on: NCI-H1650
protocol description: relative viability (nuclei count vs DMSO), 5 days (fraction); higher = more cells survive
study conditions: first compound 0.08 µM
measure: relative viability
Answer using only a numeral; do not append any unit.

INSERT INTO measurements (compound, measure, reading) VALUES
  ('CCCCCCCCCCCC1=C(O)C(=O)C=C(O)C1=O [Embelin] + Nc1ncn([C@H]2C[C@H](O)[C@@H](CO)O2)c(=O)n1 [Decitabine] (partner 2 µM)', 'relative viability', 0.354),
  ('CCCCCCCCCCCC1=C(O)C(=O)C=C(O)C1=O [Embelin] + Cc1nc(Nc2ncc(C(=O)Nc3c(C)cccc3Cl)s2)cc(N2CCN(CCO)CC2)n1 [Dasatinib] (partner 0.075 µM)', 'relative viability', 0.348);

Please turn your attention to the following entry.
Recorded result, CCCCCCCCCCCC1=C(O)C(=O)C=C(O)C1=O [Embelin] + Nc1nc2[nH]cc(CCc3ccc(C(=O)N[C@@H](CCC(=O)O)C(=O)O)cc3)c2c(=O)[nH]1 [Pemetrexed] (partner 0.2 µM) , relative viability: 0.437

====

System: SK-LU-1
protocol description: relative viability (nuclei count vs DMSO), 5 days (fraction); higher = more cells survive
study conditions: first compound 0.4 µM
measure: relative viability
Answer using only a numeral; do not append any unit.

// known answers, use as guide
INSERT INTO assay_data (compound, reading) VALUES
  ('C[C@@H]1CN(CC(=O)Nc2ccc3c(c2)Cc2cccc(-c4cc(=O)cc(N5CCOCC5)o4)c2S3)C[C@H](C)O1 + C[C@@H](Oc1cc(-c2cnn(C3CCNCC3)c2)cnc1N)c1c(Cl)ccc(F)c1Cl [Crizotinib] (partner 1 µM)', 0.902),
  ('COc1cc(N2CCC(C(N)=O)CC2)ccc1Nc1nc(N)c(Cl)c(Nc2ccccc2S(=O)(=O)C(C)C)n1 [HG-5-88-01] + CC(C)C[C@H](NC(=O)[C@H](Cc1ccccc1)NC(=O)c1cnccn1)B(O)O [Bortezomib] (partner 0.002 µM)', 1.07),
  ('Clc1ccc(Nc2nnc(Cc3ccncc3)c3ccccc23)cc1 [Vatalanib] + CCNC(=O)c1noc(-c2cc(C(C)C)c(O)cc2O)c1-c1ccc(CN2CCOCC2)cc1 [Luminespib] (partner 0.01 µM)', 0.241);

Please turn your attention to the following entry.
Observed relative viability on SK-LU-1, entry C[C@@H]1CN(CC(=O)Nc2ccc3c(c2)Cc2cccc(-c4cc(=O)cc(N5CCOCC5)o4)c2S3)C[C@H](C)O1 + CCNC(=O)c1noc(-c2cc(C(C)C)c(O)cc2O)c1-c1ccc(CN2CCOCC2)cc1 [Luminespib] (partner 0.01 µM) , equals 0.23

====

Tested on: NCI-H460
protocol description: relative viability (nuclei count vs DMSO), 5 days (fraction); higher = more cells survive
study conditions: first compound 4 µM
Listed here: items and their measured relative viability.
Answer using only a numeral; do not append any unit.

INSERT INTO assay_data (compound, reading) VALUES
  ('COc1cc(N2CCC(C(N)=O)CC2)ccc1Nc1nc(N)c(Cl)c(Nc2ccccc2S(=O)(=O)C(C)C)n1 [HG-5-88-01] + CCNC(=O)c1noc(-c2cc(C(C)C)c(O)cc2O)c1-c1ccc(CN2CCOCC2)cc1 [Luminespib] (partner 0.01 µM)', 0.0375),
  ('Clc1ccc(Nc2nnc(Cc3ccncc3)c3ccccc23)cc1 [Vatalanib] + CC1(C)CCC(c2ccc(Cl)cc2)=C(CN2CCN(c3ccc(C(=O)NS(=O)(=O)c4ccc(N[C@H](CCN5CCOCC5)CSc5ccccc5)c(S(=O)(=O)C(F)(F)F)c4)cc3)CC2)C1 [Navitoclax] (partner 0.5 µM)', 1.11),
  ('Clc1ccc(Nc2nnc(Cc3ccncc3)c3ccccc23)cc1 [Vatalanib] + NC(=O)Nc1cc(-c2cccc(F)c2)sc1C(=O)N[C@H]1CCCNC1 [AZD7762] (partner 0.2 µM)', 0.596);

Recorded result, C[C@@H]1CN(CC(=O)Nc2ccc3c(c2)Cc2cccc(-c4cc(=O)cc(N5CCOCC5)o4)c2S3)C[C@H](C)O1 + Nc1ncn([C@H]2C[C@H](O)[C@@H](CO)O2)c(=O)n1 [Decitabine] (partner 2 µM) , relative viability: 0.335

====

System: LK-2
protocol description: relative viability (nuclei count vs DMSO), 5 days (fraction); higher = more cells survive
study conditions: first compound 1.265 µM
Listed here: items and their measured relative viability.
Answer using only a numeral; do not append any unit.

INSERT INTO results (molecule, measure, reading) VALUES
  ('COc1cc(N2CCC(C(N)=O)CC2)ccc1Nc1nc(N)c(Cl)c(Nc2ccccc2S(=O)(=O)C(C)C)n1 [HG-5-88-01] + CS(=O)(=O)N1CCN(Cc2cc3nc(-c4cccc5[nH]ncc45)nc(N4CCOCC4)c3s2)CC1 [Pictilisib] (partner 1 µM)', 'relative viability', 0.386),
  ('COc1cc(N2CCC(C(N)=O)CC2)ccc1Nc1nc(N)c(Cl)c(Nc2ccccc2S(=O)(=O)C(C)C)n1 [HG-5-88-01] + C[C@@H](Oc1cc(-c2cnn(C3CCNCC3)c2)cnc1N)c1c(Cl)ccc(F)c1Cl [Crizotinib] (partner 1 µM)', 'relative viability', 0.249),
  ('Clc1ccc(Nc2nnc(Cc3ccncc3)c3ccccc23)cc1 [Vatalanib] + COc1cc2c(Oc3ccc(NC(=O)C4(C(=O)Nc5ccc(F)cc5)CC4)cc3F)ccnc2cc1OCCCN1CCOCC1 [Foretinib] (partner 0.25 µM)', 'relative viability', 1.6);

Please turn your attention to the following entry.
Recorded result, COc1cc(N2CCC(C(N)=O)CC2)ccc1Nc1nc(N)c(Cl)c(Nc2ccccc2S(=O)(=O)C(C)C)n1 [HG-5-88-01] + CS(=O)(=O)CCNCc1ccc(-c2ccc3ncnc(Nc4ccc(OCc5cccc(F)c5)c(Cl)c4)c3c2)o1 [Lapatinib] (partner 2 µM) , relative viability: 0.42

====

Tested on: NCI-H1395
protocol description: relative viability (nuclei count vs DMSO), 5 days (fraction); higher = more cells survive
study conditions: first compound 8 µM
measure: relative viability
Answer using only a numeral; do not append any unit.

INSERT INTO assay_data (compound, reading) VALUES
  ('CCCCCCCCCCCC1=C(O)C(=O)C=C(O)C1=O [Embelin] + CS(=O)(=O)CCNCc1ccc(-c2ccc3ncnc(Nc4ccc(OCc5cccc(F)c5)c(Cl)c4)c3c2)o1 [Lapatinib] (partner 2 µM)', 0.754);

Recorded result, CCCCCCCCCCCC1=C(O)C(=O)C=C(O)C1=O [Embelin] + Nc1ncn([C@H]2C[C@H](O)[C@@H](CO)O2)c(=O)n1 [Decitabine] (partner 2 µM) , relative viability: 0.698

Recorded result, CCCCCCCCCCCC1=C(O)C(=O)C=C(O)C1=O [Embelin] + CC1(C)CCC(c2ccc(Cl)cc2)=C(CN2CCN(c3ccc(C(=O)NS(=O)(=O)c4ccc(N[C@H](CCN5CCOCC5)CSc5ccccc5)c(S(=O)(=O)C(F)(F)F)c4)cc3)CC2)C1 [Navitoclax] (partner 0.5 µM) , relative viability: 0.982

Recorded result, CCCCCCCCCCCC1=C(O)C(=O)C=C(O)C1=O [Embelin] + O=C(c1cc(Cc2n[nH]c(=O)c3ccccc23)ccc1F)N1CCN(C(=O)C2CC2)CC1 [Olaparib] (partner 8 µM) , relative viability: 0.443
